These measurements were taken from the supplement of paper PMC9732359.

Reported protein stability index values for a set of sequences
assay-name: protein stability index of a GFP-peptide fusion (yeast GPS) (PSI 1-4); higher = more stable; sorted into four equal gates, so the index is relative within each strain
measurement-parameters: doa10∆
assay-endpoint: protein stability index

sequence-entry: FLPKLNSVRNSLLLAHF [NUT1]
assay-endpoint: protein stability index
result: 2.15

sequence-entry: EKDFCTSCLQNNNQKID [SRB8]
assay-endpoint: protein stability index
result: 3.13

sequence-entry: KLQGLYENIPIYATFLN [YDL116W/NUP84]
assay-endpoint: protein stability index
result: 1.32

sequence-entry: AASFKKLYKTPIPIPAF [PRE10]
assay-endpoint: protein stability index
result: 2.54

sequence-entry: DYKGAKLNVVGWFHSHP [RRI1]
assay-endpoint: protein stability index
result: 2.81
